Each entry below carries its recorded Vmax.
target: α-glucosidase (Saccharomyces cerevisiae); assay type: biochemical; conditions: C 5 μg/mL
Sequence (P53341 whole entry): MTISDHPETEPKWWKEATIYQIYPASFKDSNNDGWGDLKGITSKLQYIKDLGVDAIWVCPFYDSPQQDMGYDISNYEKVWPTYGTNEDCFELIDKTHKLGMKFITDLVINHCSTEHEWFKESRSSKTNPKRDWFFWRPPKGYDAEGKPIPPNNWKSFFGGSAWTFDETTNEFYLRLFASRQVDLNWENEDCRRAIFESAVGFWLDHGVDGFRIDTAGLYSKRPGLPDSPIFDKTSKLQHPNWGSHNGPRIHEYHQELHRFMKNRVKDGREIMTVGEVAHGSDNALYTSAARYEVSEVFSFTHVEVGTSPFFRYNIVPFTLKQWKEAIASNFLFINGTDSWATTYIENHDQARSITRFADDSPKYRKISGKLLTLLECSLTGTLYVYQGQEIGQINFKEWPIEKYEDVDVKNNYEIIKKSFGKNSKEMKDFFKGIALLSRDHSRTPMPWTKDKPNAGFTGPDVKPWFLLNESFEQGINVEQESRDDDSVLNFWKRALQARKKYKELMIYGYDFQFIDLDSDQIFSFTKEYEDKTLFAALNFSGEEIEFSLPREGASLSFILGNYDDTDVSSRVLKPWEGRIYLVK

# annotated cases, reported Vmax shown
O=C(O)c1ccc(-c2c3nc(c(-c4ccc(C(=O)O)cc4)c4ccc([nH]4)c(-c4ccc(C(=O)O)cc4)c4nc(c(-c5ccc(C(=O)O)cc5)c5ccc2[nH]5)C=C4)C=C3)cc1    0.1369 ± 0.0049 ΔOD/min
O=C(O)c1ccc(-c2c3nc(c(-c4ccc(C(=O)O)cc4)c4ccc([nH]4)c(-c4ccc(C(=O)O)cc4)c4nc(c(-c5ccc(C(=O)O)cc5)c5ccc2[nH]5)C=C4)C=C3)cc1.[Ni+2]    0.1036 ± 0.0026 ΔOD/min
O=C(O)c1ccc(-c2c3nc(c(-c4ccc(C(=O)O)cc4)c4ccc([nH]4)c(-c4ccc(C(=O)O)cc4)c4nc(c(-c5ccc(C(=O)O)cc5)c5ccc2[nH]5)C=C4)C=C3)cc1.[Cu+2]    0.1496 ± 0.0019 ΔOD/min

Proceeding to the next molecule to report its Vmax.
Name the recorded Vmax for "Oc1ccc(-c2c3nc(c(-c4ccc(O)cc4)c4ccc([nH]4)c(-c4ccc(O)cc4)c4nc(c(-c5ccc(O)cc5)c5ccc2[nH]5)C=C4)C=C3)cc1" .
0.0649 ± 0.0019 ΔOD/min

###

target: α-amylase (Sus scrofa); test: FTIR secondary structure analysis of α-AMY complexes; details: enzyme–porphyrin molar ratio 1:2, amide I band
endpoint-label: β-Turn (%)
A number alone suffices; assume %.

Oc1ccc(-c2c3nc(c(-c4ccc(O)cc4)c4ccc([nH]4)c(-c4ccc(O)cc4)c4nc(c(-c5ccc(O)cc5)c5ccc2[nH]5)C=C4)C=C3)cc1    33.76
O=C(O)c1ccc(-c2c3nc(c(-c4ccc(C(=O)O)cc4)c4ccc([nH]4)c(-c4ccc(C(=O)O)cc4)c4nc(c(-c5ccc(C(=O)O)cc5)c5ccc2[nH]5)C=C4)C=C3)cc1    39.66
O=C(O)c1ccc(-c2c3nc(c(-c4ccc(C(=O)O)cc4)c4ccc([nH]4)c(-c4ccc(C(=O)O)cc4)c4nc(c(-c5ccc(C(=O)O)cc5)c5ccc2[nH]5)C=C4)C=C3)cc1.[Cu+2]    35.19
Nc1ccc(-c2c3nc(c(-c4ccc(N)cc4)c4ccc([nH]4)c(-c4ccc(N)cc4)c4nc(c(-c5ccc(N)cc5)c5ccc2[nH]5)C=C4)C=C3)cc1    34.00

Proceeding to the next compound to report its β-Turn.
Record "O=C(O)c1ccc(-c2c3nc(c(-c4ccc(C(=O)O)cc4)c4ccc([nH]4)c(-c4ccc(C(=O)O)cc4)c4nc(c(-c5ccc(C(=O)O)cc5)c5ccc2[nH]5)C=C4)C=C3)cc1.[Ni+2]" : what is its β-Turn with α-amylase (Sus scrofa)?
36.33

###

Biological target: α-amylase (Sus scrofa)
Sequence (P00690 16-511): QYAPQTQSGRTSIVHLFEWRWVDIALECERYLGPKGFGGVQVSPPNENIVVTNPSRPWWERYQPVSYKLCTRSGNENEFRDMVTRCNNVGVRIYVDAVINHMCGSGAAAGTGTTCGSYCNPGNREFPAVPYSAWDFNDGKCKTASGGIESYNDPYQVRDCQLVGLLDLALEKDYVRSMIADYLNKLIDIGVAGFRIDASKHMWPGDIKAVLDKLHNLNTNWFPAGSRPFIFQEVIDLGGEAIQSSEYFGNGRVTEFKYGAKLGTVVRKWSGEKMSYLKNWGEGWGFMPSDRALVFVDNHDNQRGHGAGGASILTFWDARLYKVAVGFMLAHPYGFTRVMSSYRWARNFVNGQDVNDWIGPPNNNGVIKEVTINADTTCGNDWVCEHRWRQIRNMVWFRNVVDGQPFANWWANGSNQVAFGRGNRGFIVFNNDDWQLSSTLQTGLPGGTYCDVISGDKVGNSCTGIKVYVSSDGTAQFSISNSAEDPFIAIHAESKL
Experiment: FTIR secondary structure analysis of α-AMY complexes
Settings: enzyme–porphyrin molar ratio 1:2, amide I band
Each entry below carries its recorded Random Coil.
A number alone suffices; assume %.

# annotated cases, reported Random Coil shown
O=C(O)c1ccc(-c2c3nc(c(-c4ccc(C(=O)O)cc4)c4ccc([nH]4)c(-c4ccc(C(=O)O)cc4)c4nc(c(-c5ccc(C(=O)O)cc5)c5ccc2[nH]5)C=C4)C=C3)cc1.[Cu+2]    20.94
O=C(O)c1ccc(-c2c3nc(c(-c4ccc(C(=O)O)cc4)c4ccc([nH]4)c(-c4ccc(C(=O)O)cc4)c4nc(c(-c5ccc(C(=O)O)cc5)c5ccc2[nH]5)C=C4)C=C3)cc1.[Ni+2]    21.40
O=C(O)c1ccc(-c2c3nc(c(-c4ccc(C(=O)O)cc4)c4ccc([nH]4)c(-c4ccc(C(=O)O)cc4)c4nc(c(-c5ccc(C(=O)O)cc5)c5ccc2[nH]5)C=C4)C=C3)cc1    19.84

Proceeding to the next compound to report its Random Coil.
Name the recorded Random Coil for "Oc1ccc(-c2c3nc(c(-c4ccc(O)cc4)c4ccc([nH]4)c(-c4ccc(O)cc4)c4nc(c(-c5ccc(O)cc5)c5ccc2[nH]5)C=C4)C=C3)cc1" .
17.71
